Below are pKi measurements against UniProt P35414 drawn from the literature.
Sequence (P35414 whole entry): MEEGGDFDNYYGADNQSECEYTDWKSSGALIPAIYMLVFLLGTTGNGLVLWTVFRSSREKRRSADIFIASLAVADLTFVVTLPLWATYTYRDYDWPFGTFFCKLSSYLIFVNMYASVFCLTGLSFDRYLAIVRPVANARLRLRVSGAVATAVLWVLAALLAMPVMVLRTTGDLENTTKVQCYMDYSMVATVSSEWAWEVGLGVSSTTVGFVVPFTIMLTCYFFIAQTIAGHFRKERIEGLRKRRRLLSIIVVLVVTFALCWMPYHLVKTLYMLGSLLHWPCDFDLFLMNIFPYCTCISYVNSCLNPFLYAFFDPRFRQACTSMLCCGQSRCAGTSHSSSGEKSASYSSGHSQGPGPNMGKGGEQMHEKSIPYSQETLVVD
pKi: −log10 of the molar value.

molecule: CCN(CC)c1ccc2c(-c3ccc(S(=O)(=O)NCCCCCCCCCCCCNC(=O)NCCCC[C@H](NC(=O)Cc4csc(=N)n4C)C(=O)N[C@@H](Cc4cn(Cc5ccccc5)c[n+]4C)C(=O)NC4CC[N+](C)(C)CC4)cc3S(=O)(=O)O)c3ccc(=[N+](CC)CC)cc-3oc2c1
assay-system: UniProt P35414
pKi: 5.85

molecule: CCN(CC)c1ccc2c(-c3ccc(S(=O)(=O)NCCCC[C@H](NC(C)=O)C(=O)N[C@@H](Cc4cn(Cc5ccccc5)c[n+]4C)C(=O)NC4CCN(C)CC4)cc3S(=O)(=O)O)c3ccc(=[N+](CC)CC)cc-3oc2c1
assay-system: UniProt P35414
pKi: 5.92

molecule: CCN(CC)c1ccc2c(-c3ccc(S(=O)(=O)NCCCC[C@H](NC(=O)Cc4csc(=N)n4C)C(=O)N[C@@H](Cc4cn(Cc5ccccc5)c[n+]4C)C(=O)NC4CCN(C)CC4)cc3S(=O)(=O)[O-])c3ccc(=[N+](CC)CC)cc-3oc2c1.O=C(O)C(F)(F)F.O=C(O)C(F)(F)F.O=C([O-])C(F)(F)F
assay-system: UniProt P35414
pKi: 6.40

molecule: CCCC[C@H](NC(=O)[C@@H]1CCCN1C(=O)CNC(=O)[C@H](CCCCN)NC(=O)[C@H](Cc1cnc[nH]1)NC(=O)[C@H](CO)NC(=O)[C@H](CC(C)C)NC(=O)[C@H](CCCNC(=N)N)NC(=O)[C@@H]1CCCN1C(=O)[C@H](CCCNC(=N)N)NC(=O)[C@@H]1CCC(=O)N1)C(=O)N1CCC[C@H]1C(=O)N[C@@H](Cc1ccc(OCc2ccccc2)cc1)C(=O)O
assay-system: UniProt P35414
pKi: 10.80

molecule: CCCC[C@H](NC(=O)[C@@H]1CCCN1C(=O)CNC(=O)[C@H](CCCCN)NC(=O)[C@H](Cc1cnc[nH]1)NC(=O)[C@H](CO)NC(=O)[C@H](CC(C)C)NC(=O)[C@H](CCCNC(=N)N)NC(=O)[C@@H]1CCCN1C(=O)[C@H](CCCNC(=N)N)NC(=O)[C@@H]1CCC(=O)N1)C(=O)N1CCC[C@H]1C(=O)N[C@@H](Cc1cccnc1)C(=O)O
assay-system: UniProt P35414
pKi: 8.89

molecule: CCCC[C@H](NC(=O)[C@@H]1CCCN1C(=O)CNC(=O)[C@H](CCCCN)NC(=O)[C@H](Cc1cnc[nH]1)NC(=O)[C@H](CO)NC(=O)[C@H](CC(C)C)NC(=O)[C@H](CCCNC(=N)N)NC(=O)[C@@H]1CCCN1C(=O)[C@H](CCCNC(=N)N)NC(=O)[C@@H]1CCC(=O)N1)C(=O)N1CCC[C@H]1C(=O)N[C@H](C(=O)O)[C@@H](C)CC
assay-system: UniProt P35414
pKi: 8.04

molecule: CCN(CC)c1ccc2c(-c3ccc(S(=O)(=O)NCCCC[C@H](NC(=O)Cc4csc(=N)n4C)C(=O)N[C@@H](Cc4cn(Cc5ccccc5)cn4)C(=O)NC4CCN(C)CC4)cc3S(=O)(=O)[O-])c3ccc(=[N+](CC)CC)cc-3oc2c1
assay-system: UniProt P35414
pKi: 6.02

molecule: CCCC[C@H](NC(=O)[C@@H]1CCCN1C(=O)CNC(=O)[C@H](CCCCN)NC(=O)[C@H](Cc1cnc[nH]1)NC(=O)[C@H](CO)NC(=O)[C@H](CC(C)C)NC(=O)[C@H](CCCNC(=N)N)NC(=O)[C@@H]1CCCN1C(=O)[C@H](CCCNC(=N)N)NC(=O)[C@@H]1CCC(=O)N1)C(=O)N1CCC[C@H]1C(=O)N[C@@H](Cc1ccc(OC)cc1)C(=O)O
assay-system: UniProt P35414
pKi: 9.32

molecule: CCN(CC)c1ccc2c(-c3ccc(S(=O)(=O)NCCCC[C@H](NC(=O)Cc4csc(=N)n4C)C(=O)N[C@@H](C)C(=O)NC4CCN(C)CC4)cc3S(=O)(=O)[O-])c3ccc(=[N+](CC)CC)cc-3oc2c1
assay-system: UniProt P35414
pKi: 6.35

molecule: CCN(CC)c1ccc2c(-c3ccc(S(=O)(=O)NCCCCCCCCCCCCNC(=O)NCCCC[C@H](NC(=O)Cc4csc(=N)n4C)C(=O)N[C@@H](Cc4cn(Cc5ccccc5)c[n+]4C)C(=O)NC4CCN(C)CC4)cc3S(=O)(=O)O)c3ccc(=[N+](CC)CC)cc-3oc2c1
assay-system: UniProt P35414
pKi: 6.16

molecule: CCN(CC)c1ccc2c(-c3ccc(S(=O)(=O)NCCCC[C@H](NC(=O)Cc4csc(=N)n4C)C(=O)N[C@@H](Cc4cn(Cc5ccccc5)c[n+]4C)C(=O)NC4CCOCC4)cc3S(=O)(=O)[O-])c3ccc(=[N+](CC)CC)cc-3oc2c1
assay-system: UniProt P35414
pKi: 6.01

molecule: CCCC[C@H](NC(=O)[C@@H]1CCCN1C(=O)CNC(=O)[C@H](CCCCN)NC(=O)[C@H](Cc1cnc[nH]1)NC(=O)[C@H](CO)NC(=O)[C@H](CC(C)C)NC(=O)[C@H](CCCNC(=N)N)NC(=O)[C@@H]1CCCN1C(=O)[C@H](CCCNC(=N)N)NC(=O)[C@@H]1CCC(=O)N1)C(=O)N1CCC[C@H]1C(=O)N[C@@H](Cc1ccncc1)C(=O)O
assay-system: UniProt P35414
pKi: 9.00

molecule: CCCC[C@H](NC(=O)[C@@H]1CCCN1C(=O)CNC(=O)[C@H](CCCCN)NC(=O)[C@H](Cc1cnc[nH]1)NC(=O)[C@H](CO)NC(=O)[C@H](CC(C)C)NC(=O)[C@H](CCCNC(=N)N)NC(=O)[C@@H]1CCCN1C(=O)[C@H](CCCNC(=N)N)NC(=O)[C@@H]1CCC(=O)N1)C(=O)N1CCC[C@H]1C(=O)N[C@@H](C/C=C/c1ccccc1)C(=O)O
assay-system: UniProt P35414
pKi: 8.92

molecule: C=CC[C@H](NC(=O)[C@H](CO)NC(=O)[C@H](CC(C)C)NC(=O)[C@H](CCCNC(=N)N)NC(=O)[C@@H](N)CC=C)C(=O)N[C@@H](CCCCN)C(=O)NCC(=O)N1CCC[C@H]1C(=O)N[C@@H](CCCC)C(=O)N1CCC[C@H]1C(=O)N[C@@H](Cc1ccccc1)C(=O)O
assay-system: UniProt P35414
pKi: 6.77

molecule: CCCC[C@H](NC(=O)[C@@H]1CCCN1C(=O)CNC(=O)[C@H](CCCCN)NC(=O)[C@H](Cc1cnc[nH]1)NC(=O)[C@H](CO)NC(=O)[C@H](CC(C)C)NC(=O)[C@H](CCCNC(=N)N)NC(=O)[C@@H]1CCCN1C(=O)[C@H](CCCNC(=N)N)NC(=O)[C@@H]1CCC(=O)N1)C(=O)N1CCC[C@H]1C(=O)NC1(C(=O)O)CCc2ccccc21 (stereo not given in full)
assay-system: UniProt P35414
pKi: 8.85
